Test system: A549
method summary: Cytotoxicity against human A549 cells after 96 hrs by MTT assay
Assay type: functional, cell-based
assay context: A549, 96 h
pIC50: −log10 of the molar value.
# pIC50 per record follows
assay readout: pIC50

INSERT INTO results (line_notation, assay_readout, result) VALUES
  ('C[C@@H](CO)[C@@H]1CC[C@]2(C)CC[C@]3(C)[C@H](CC[C@@H]4[C@@]5(C)CCC(=O)C(C)(C)[C@@H]5C[C@H](O)[C@]43C)[C@@H]12', 'pIC50', '< 5.00'),
  ('C=C(CO)[C@@H]1CC[C@]2(CO)CC[C@]3(C)[C@H](CC[C@@H]4[C@@]5(C)CC[C@@H](OC(C)=O)C(C)(C)[C@@H]5CC[C@]43C)[C@@H]12', 'pIC50', 5.47),
  ('CC(=O)C1=C2[C@H]3CC[C@@H]4[C@@]5(C)CC[C@@H](O)C(C)(C)[C@@H]5CC[C@@]4(C)[C@]3(C)CC[C@@]2(C)CC1=O', 'pIC50', '< 5.00');

Origin of values: ChEMBL document CHEMBL3108727
